# experiment.summary: The drug is tested on Bacteroides vulgatus strain: ATCC8482 for biotransformation. The drug concentrations were measured before and after a 12-h incubation by liquid-chromatography-coupled mass spectrometry (LC–MS)
# cond: phocaeicola vulgatus, 2 µM
measured.property: Bacterial Biotransformation

# count of solved cases: 6
>  <compound>
CN(C)C(=O)C(CCN1CCC(O)(c2ccc(Cl)cc2)CC1)(c1ccccc1)c1ccccc1 [LOPERAMIDE]

>  <Bacterial Biotransformation>
Compound metabolized

$$$$
>  <compound>
CN(C)CCc1c[nH]c2ccc(Cn3cncn3)cc12.O=C(O)c1ccccc1 [RIZATRIPTAN BENZOATE]

>  <Bacterial Biotransformation>
Compound NOT metabolized

$$$$
>  <compound>
O=C(O)c1cc(/N=N/c2ccc(S(=O)(=O)Nc3ccccn3)cc2)ccc1O [SULFASALAZINE]

>  <Bacterial Biotransformation>
Compound metabolized

$$$$
>  <compound>
CC(C)NCC(O)c1ccc(NS(C)(=O)=O)cc1 (configuration not stated) [SOTALOL]

>  <Bacterial Biotransformation>
Compound NOT metabolized

$$$$
>  <compound>
COc1ccc(CN2CCNCC2)c(OC)c1OC.Cl.Cl [TRIMETAZIDINE DIHYDROCHLORIDE]

>  <Bacterial Biotransformation>
Compound metabolized

$$$$
>  <compound>
CCS(=O)(=O)CCn1c([N+](=O)[O-])cnc1C [TINIDAZOLE]

>  <Bacterial Biotransformation>
Compound metabolized

$$$$

Required: Bacterial Biotransformation, one value per compound below.
1. COCCc1ccc(OCC(O)CNC(C)C)cc1.COCCc1ccc(OCC(O)CNC(C)C)cc1.O=C(O)C(O)C(O)C(=O)O (configuration not stated) [METOPROLOL TARTRATE]
2. CC(=O)O[C@]1(C(C)=O)CC[C@H]2[C@@H]3C=C(C)C4=CC(=O)CC[C@]4(C)[C@H]3CC[C@@]21C [MEGESTROL ACETATE]
3. CCCCCNC(=N)N/N=C/c1c[nH]c2ccc(OC)cc12.O=C(O)/C=C\C(=O)O [TEGASEROD MALEATE]
4. CC(C)c1nc(N(C)S(C)(=O)=O)nc(-c2ccc(F)cc2)c1/C=C/[C@@H](O)C[C@@H](O)CC(=O)[O-].CC(C)c1nc(N(C)S(C)(=O)=O)nc(-c2ccc(F)cc2)c1/C=C/[C@@H](O)C[C@@H](O)CC(=O)[O-].[Ca+2] [ROSUVASTATIN CALCIUM]
5. CCN(CC)C(=O)C1(c2ccccc2)CC1CN (configuration not stated)
6. Cc1cn([C@H]2C[C@H](N=[N+]=[N-])[C@@H](CO)O2)c(=O)[nH]c1=O [ZIDOVUDINE]
7. CC(C)(C)NC[C@H](O)COc1ccccc1C1CCCC1.CC(C)(C)NC[C@H](O)COc1ccccc1C1CCCC1.O=S(=O)(O)O [PENBUTOLOL SULFATE]
8. COc1ccc2[nH]c([S+]([O-])Cc3ncc(C)c(OC)c3C)nc2n1 (configuration not stated) [TENATOPRAZOLE]

Response given:
1: Compound NOT metabolized; 2: Compound metabolized; 3: Compound NOT metabolized; 4: Compound NOT metabolized; 5: Compound NOT metabolized; 6: Compound metabolized; 7: Compound metabolized; 8: Compound metabolized
